Target: alpha toxin (alpha-hemolysin) (Staphylococcus aureus, UniProt P09616 27-319)
Sequence (P09616 27-319): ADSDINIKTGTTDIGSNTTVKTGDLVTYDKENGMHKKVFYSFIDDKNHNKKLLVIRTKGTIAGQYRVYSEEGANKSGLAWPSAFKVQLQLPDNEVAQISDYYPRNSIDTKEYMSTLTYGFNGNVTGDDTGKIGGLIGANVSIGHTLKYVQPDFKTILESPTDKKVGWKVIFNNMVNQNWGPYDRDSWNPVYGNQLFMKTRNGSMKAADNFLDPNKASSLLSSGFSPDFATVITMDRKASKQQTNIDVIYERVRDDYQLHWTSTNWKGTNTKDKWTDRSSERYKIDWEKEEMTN
Test: SPR; assay 1; […] (pH not stated); SPR temperature not stated; […]
Details: protein: commercial; stem-loop (Mfold)
measurement-type: Kd
Number first, unit second.

[Q] Consider the binder shown here: R12.06 (5'-amino-C6) (ssDNA, 5' amino-C6) DNA: TGTACCGTCTGAGCGATTCGTACGATTACTATAATTTCCTATCGTCCGACCGCCGTCAGCCAGTCAGTGTTAAGGAGTGC What is its recorded Kd?
[A] 102 nM
